target: human mOR (Homo sapiens (Human), UniProt P35372); test: cell-based
Sequence (P35372 whole entry): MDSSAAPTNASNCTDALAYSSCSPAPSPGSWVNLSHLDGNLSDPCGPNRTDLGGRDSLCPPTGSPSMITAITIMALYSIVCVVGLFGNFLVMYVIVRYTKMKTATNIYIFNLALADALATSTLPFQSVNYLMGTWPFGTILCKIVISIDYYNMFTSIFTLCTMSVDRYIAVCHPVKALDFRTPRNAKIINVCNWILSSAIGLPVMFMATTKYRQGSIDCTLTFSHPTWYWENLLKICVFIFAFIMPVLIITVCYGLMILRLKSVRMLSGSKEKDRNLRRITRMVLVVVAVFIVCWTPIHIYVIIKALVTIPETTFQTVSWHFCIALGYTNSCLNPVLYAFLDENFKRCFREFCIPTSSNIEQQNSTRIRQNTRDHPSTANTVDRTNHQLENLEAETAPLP
pIC50: −log10 of the molar value.
RESULT TYPE: pIC50

Worked cases, pIC50 given:
Exam item: Consider the compound Cc1ccc([C@@H](CC(=O)NC[C@H](Cc2ccc(C(N)=O)c(F)c2C)N(C)C)C2(C(F)(F)F)CC2)cn1 [Compound 46] . State its measured pIC50.
Marked response: > 6.52

Exam item: Report measured pIC50; entry is CNC(=O)c1ccc(C[C@@H](CNC(=O)C[C@H](CC2CC2)c2ccccn2)N(C)C)c(C)c1 [Compound 139]
Marked response: < 5.52

Exam item: Item Cc1cc(O)ccc1C[C@@H](CNC(=O)C[C@H](c1cncs1)C1(C(F)(F)F)CC1)N(C)C [Compound 268] : provide pIC50
Marked response: > 6.52

Exam item: Determine from records and report pIC50 for Cc1c(C[C@@H](CNC(=O)C[C@H](c2cccnc2)C2(C(F)(F)F)CC2)N(C)C)ccc2[nH]ncc12 [Compound 197]
Marked response: > 6.52

Exam item: Determine its reported pIC50: CN(C)[C@H](CNC(=O)C[C@H](c1cccnc1)C1(C(F)(F)F)CC1)Cc1cc2cn[nH]c2cc1Cl [Compound 235]
Marked response: > 6.52

Exam item: Check the records and state pIC50 for CNC(=O)c1ccc(C[C@@H](CNC(=O)C[C@@H](c2cncc(F)c2)C(C)(C)C)N(C)C)cc1F [Compound 151]
Marked response: 5.52 to 6.52

Exam item: Return pIC50 for the following compound: Cc1cc([C@@H](CC(=O)NC[C@H](Cc2ccc(C(N)=O)c(F)c2)N(C)C)C2(C(F)(F)F)CC2)cs1 [Compound 52]
Marked response: > 6.52

Exam item: Query pIC50 for Cc1cc(O)cc(C)c1C[C@@H](CNC(=O)CC(c1cncc(F)c1)C1(C(F)(F)F)CC1)N(C)C (stereo partly drawn) [Compound 247]
Marked response: > 6.52

Exam item: Provide one value: measured pIC50 of CN(C)[C@H](CNC(=O)C[C@@H](c1ccccc1)C1CC1)Cc1ccc(C(N)=O)cc1 [Compound 97]
Marked response: > 6.52

Exam item: Query pIC50 for CN(C)[C@H](CNC(=O)CC(c1ccncc1)C1(C(F)(F)F)CC1)Cc1ccc(C(N)=O)c(F)c1Cl (stereo partly drawn) [Compound 19]
Marked response: > 6.52

Dear colleague, could you send me pIC50 for each of the items below? Thanks.
1. CN[C@H](CNC(=O)C[C@@H](c1ccccc1)C1(C(F)(F)F)CC1)Cc1ccc(C(N)=O)cc1 [Compound 82]
2. CNC(=O)c1cc(F)c(C[C@@H](CNC(=O)C[C@H](c2cnc(C)nc2)C2(C(F)(F)F)CC2)N(C)C)c(F)c1 [Compound 105]
3. COc1ccc(C(CC(=O)NC[C@H](Cc2ccc(O)cc2C)N(C)C)C2(C(F)(F)F)CC2)cn1 (stereo partly drawn) [Compound 273]
4. Cc1ncc([C@@H](CC(=O)NC[C@H](Cc2ccc(C(N)=O)cc2Cl)N(C)C)C2CC2)cn1 [Compound 25]
5. C[C@@H](CC(=O)NC[C@H](Cc1ccc2[nH]ncc2c1)N(C)C)c1ccc(F)cc1 [Compound 218]

Marked response:
1. < 5.52
2. 5.52 to 6.52
3. > 6.52
4. > 6.52
5. > 6.52

---

biological target: UniProt P35372; assay: cell-based
RESULT TYPE: IC50

The examples below pair each entry with its known result.
Exam item: Please give the documented IC50 of CNC(=O)c1ccc(C[C@@H](CNC(=O)CC(c2ccncc2)C2(C(F)(F)F)CC2)N(C)C)c(C)c1 (stereo in doubt) [Compound 130]
Marked response: < 300 nM

Exam item: Identify the reported IC50 for the following entry. Cc1cc(O)ccc1C[C@@H](CNC(=O)C[C@H](c1cncs1)C1CC1)N(C)C [Compound 264]
Marked response: < 300 nM

Exam item: Determine from records and report IC50 for Cc1cc([C@@H](CC(=O)NC[C@H](Cc2ccc(O)cc2)N(C)C)C2(C(F)(F)F)CC2)ccn1 [Compound 299]
Marked response: < 300 nM

Exam item: Please give measured IC50 of the following entry: CC(C)C[C@H](CC(=O)NC[C@H](Cc1ccc(O)cc1)N(C)C)c1cccnc1 [Compound 297]
Marked response: < 300 nM

Exam item: Return the recorded IC50 value; entry: Cc1cncc([C@H](CC(=O)NC[C@H](Cc2ccc3[nH]ncc3c2)N(C)C)C2(C(F)(F)F)CC2)c1 [Compound 203]
Marked response: 300 to 3000 nM

Exam item: Hello, please tell me recorded IC50 for this one: CN(C)[C@H](CNC(=O)C[C@H](c1cccnc1)C1(C)CC1)Cc1ccc(O)cc1 [Compound 303]
Marked response: < 300 nM

For each of the compounds below, note its IC50.
1. CN(C)[C@H](CNC(=O)C[C@H](c1cccnc1)C1(C(F)(F)F)CC1)Cc1ccc(O)c(F)c1 [Compound 290]
2. CN(C)[C@H](CNC(=O)C[C@@H](CC1CC1)c1cncnc1)Cc1ccc(O)cc1 [Compound 307]
3. Cc1cc(C[C@@H](CNC(=O)C[C@H](c2cccnc2)C2(C(F)(F)F)CC2)N(C)C)cc2cn[nH]c12 [Compound 231, bis(trifluoroacetic acid)]
4. CN(C)[C@H](CNC(=O)C[C@@H](c1ccccc1)C1(C(F)(F)F)CC1)Cc1ccc(C(N)=O)cc1 [Compound 88]
5. CN(C)[C@H](CNC(=O)C[C@H](c1ccncc1)C1CC1)Cc1c(F)cc(O)cc1F [Compound 239]
6. COc1ccc(C[C@@H](CNC(=O)C[C@H](c2cccnc2)C2(C(F)(F)F)CC2)N(C)C)c(Cl)c1F [Compound 259]
7. CNC(=O)c1ccc(C[C@@H](CNC(=O)C[C@H](c2ccccc2)C(C)(C)C)N(C)C)cc1Cl [Compound 150]

Marked response:
1. < 300 nM
2. < 300 nM
3. < 300 nM
4. < 300 nM
5. < 300 nM
6. > 3000 nM
7. < 300 nM

Give IC50 for each of the items listed below.
1. CN(C)[C@H](CNC(=O)C[C@H](c1cccnc1)C1(C(F)(F)F)CC1)Cc1ccc(C(N)=O)c(F)c1Cl [Compound 18]
2. CN(C)[C@H](CNC(=O)CC(c1ccncc1)C1(C(F)(F)F)CC1)Cc1ccc(O)c(Cl)c1 (stereo partly drawn) [Compound 284]
3. CN(C)[C@H](CNC(=O)C[C@H](CC1CC1)c1ccncc1)Cc1ccc(O)cc1 [Compound 298]
4. CN(C)[C@H](CNC(=O)CC(c1cccnc1)C1(C(F)(F)F)CC1)Cc1cc(F)c(C(N)=O)c(F)c1 (stereo partly drawn) [Compound 50]
5. CN(C)[C@H](CNC(=O)C[C@H](c1cccnc1)C1(C(F)(F)F)CC1)Cc1ccc2cn[nH]c2c1 [Compound 232]

Marked response:
1. > 3000 nM
2. < 300 nM
3. < 300 nM
4. > 3000 nM
5. 300 to 3000 nM

---

Give measured pEC50 for each item. Keep answers brief.
molecular target: human dOR (Homo sapiens (Human), UniProt P41143); assay: cell-based; settings: dOR cAMP Agonist Assay EC50, CHO Tag-lite human dOR stable cell line; forskolin
Sequence (P41143 whole entry): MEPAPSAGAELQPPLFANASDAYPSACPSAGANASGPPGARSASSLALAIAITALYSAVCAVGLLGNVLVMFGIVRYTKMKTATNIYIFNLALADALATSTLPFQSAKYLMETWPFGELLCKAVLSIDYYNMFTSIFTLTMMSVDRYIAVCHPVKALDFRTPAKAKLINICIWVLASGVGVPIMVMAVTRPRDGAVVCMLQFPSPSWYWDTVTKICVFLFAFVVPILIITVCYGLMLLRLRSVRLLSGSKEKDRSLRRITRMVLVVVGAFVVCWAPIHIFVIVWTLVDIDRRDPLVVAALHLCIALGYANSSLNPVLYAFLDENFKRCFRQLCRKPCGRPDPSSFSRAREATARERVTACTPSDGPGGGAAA
pEC50: −log10 of the molar value.

Examples from the recorded data:
Exam item: Find the measured pEC50 of CN(C)[C@H](CNC(=O)C[C@@H](c1ccccc1)C1CC1)Cc1ccc(O)cc1 [Compound 318] and report it.
Marked response: > 6.52

Exam item: In one line, give reported pEC50 of the entry CNC(=O)c1ccc(C[C@@H](CNC(=O)C[C@H](C)c2ccc(Cl)cc2)N(C)C)cc1F [Compound 156] .
Marked response: 5.52 to 6.52

Exam item: Give pEC50 for the following compound: CNC(=O)c1ccc(C[C@@H](CNC(=O)C[C@H](c2ccccc2)C(C)C)N(C)C)cc1Cl [Compound 148]
Marked response: 5.52 to 6.52

Exam item: Tell me pEC50 reported for Cc1ccc([C@@H](C)CC(=O)NC[C@H](Cc2ccc3[nH]ncc3c2)N(C)C)cc1 [Compound 217]
Marked response: 5.52 to 6.52

// switching to the query compound
Exam item: Determine from records and report pEC50 for CN(C)[C@H](CNC(=O)C[C@H](c1ccccc1)C(C)(C)C)Cc1ccc(C(=O)NCC(F)(F)F)c(F)c1 [Compound 101]
Marked response: 5.52 to 6.52

---

Molecular target: human mOR (Homo sapiens (Human))
Test: cell-based
Protocol: CHO Tag-lite human mOR stable cell line from Cisbio (NCBI accession number: NM_000914.3, Bedford, Mass.) were seeded and grown to approximately 80% confluence in Ham F-12 with 10% FBS, 50 U/ml penicillin, 50 μg/ml streptomycin, 2 mM Hepes, and 1 mg/ml geneticin (Invitrogen, Carlsbad, Calif.). […] Following incubation, plates were read in a Synergy Neo2 multi-mode reader (Biotek, Winooski, Vt.). […]
Hi there, I'd appreciate the recorded IC50 for every entry that follows.

Please review the following examples before continuing.
Exam item: For the molecule CN(C)[C@H](CNC(=O)C[C@H](c1ccccc1)C1(C(F)(F)F)CC1)Cc1ccc(C(N)=O)cc1 , report IC50.
Marked response: < 300 nM

Exam item: Give IC50 for the following molecule: CNC(=O)c1ccc(C[C@@H](CNC(=O)C[C@H](c2cnc(C)nc2)C2(C(F)(F)F)CC2)N(C)C)cc1F
Marked response: > 3000 nM

Exam item: Give me measured IC50, please, for this molecule: Cc1cc(O)ccc1C[C@@H](CNC(=O)CC(c1ncc(Cl)cn1)C1(C(F)(F)F)CC1)N(C)C (stereo partly drawn)
Marked response: < 300 nM

Exam item: Give the reported IC50 for this molecule. Cc1ncc([C@H](CC(=O)NC[C@H](Cc2ccc(C(N)=O)c(F)c2)N(C)C)C2(C(F)(F)F)CC2)s1
Marked response: > 3000 nM

Exam item: Provide IC50 value for the following molecule: Cc1cc([C@@H](CC(=O)NC[C@H](Cc2ccc(O)cc2)N(C)C)C2(C(F)(F)F)CC2)cs1
Marked response: < 300 nM

Exam item: Read off the recorded IC50 for Cc1ncc([C@@H](CC(=O)NC[C@H](Cc2ccc(C(N)=O)c(F)c2Cl)N(C)C)C2(C(F)(F)F)CC2)cn1
Marked response: < 300 nM

Exam item: Provide only the value of recorded IC50 for CNC(=O)c1ccc(C[C@@H](CNC(=O)C[C@H](c2ccccc2)C(C)C)N(C)C)cc1Cl
Marked response: 300 to 3000 nM

Exam item: Identify measured IC50 corresponding to CNC(=O)c1ccc(C[C@@H](CNC(=O)C[C@H](c2ccc(F)cc2)C2(C(F)(F)F)CC2)N(C)C)c(C)c1
Marked response: < 300 nM

Please state IC50 for every molecule in the list that follows.
1. Cc1ccc([C@@H](CC(=O)NC[C@H](Cc2ccc(O)cc2C)N(C)C)C2(C(F)(F)F)CC2)o1
2. CN(C)[C@H](CNC(=O)C[C@H](c1cccnc1)C1(C(F)(F)F)CC1)Cc1ccc(O)cc1C(F)(F)F
3. CCCC[C@@H](CC(=O)NC[C@H](Cc1ccc2[nH]c(=O)oc2c1)N(C)C)c1ccccc1
4. CN(C)[C@H](CNC(=O)C[C@H](c1cccnc1)C1(C(F)(F)F)CC1)Cc1ccc2[nH]ncc2c1
5. CN(C)[C@H](CNC(=O)C[C@H](c1ccncc1)C1CC1)Cc1ccc(O)c(F)c1Cl
6. Cc1cc(O)cc(C)c1C[C@@H](CNC(=O)C[C@@H](c1cccnc1)C1(C(F)(F)F)CC1)N(C)C

Marked response:
1: < 300 nM; 2: < 300 nM; 3: < 300 nM; 4: < 300 nM; 5: < 300 nM; 6: < 300 nM

Exam item: Hello, please tell me recorded IC50 for this one: CN(C)[C@H](CNC(=O)CC(c1ccncc1)C1(C(F)(F)F)CC1)Cc1ccc(C(N)=O)cc1Cl (stereo partly drawn)
Marked response: < 300 nM

Values from patent US11634396B2
